All figures here come from the PETadex activity labels (doi:10.1016/s0014-5793(99)00813-3).

Could you please report measured Km for the items listed next?
Substrate: p-NP-C4
Details: pH 7.1; 25 °C
Just the number please, in µM, no unit attached.

Give the measured Km of unnamed (protein) MKPENKLPVLDLISAEMKTVVNTLQPDLPPWPATGTIAEQRQYYTLERRFWNAGAPEMATRAYMVPTKYGQVETRLFCPQPDSPATLFYLHGGGFILGNLDTNDRIMRLLASYSQCTVIGIDYTLSPEARFPQAIEEIVAACCYFHQQAEDYQINMSRIGFAGDSAGAMLALASALWLRDKQIDCGKVAGVLLWYGLYGLRDSVTRRLLGGVWDGLTQQDLQMYEEAYLSNDADRESPYYCLFNNDLTREVPPCFIAGAEFDPLLDDSRLLYQTLAAHQQPCEFKLYPGTLHAFLHYSRMMKTADEALRDGAQFFTAQL .
250

Next protein: unnamed (protein) MKPENKLPVLDLISAEMKTVVNTLQPDLPPWPATGTIAEQRQYYTLERRFWNAGAPEMATRAYMVPTKYGQVETRLFCPQPDSPATLFYLHGGGFILGNLDTHDRIMRLLASYSQCTVIGIDYTLSPEARFPQAIEEIVAACCYFHQQAEDYQINMSRIGFAADSAGAMLALASALWLRDKQIDCGKVAGVLLWYGLYGLRDSVTRRLLGGVWDGLTQQDLQMYEEAYLSNDADRESPYYCLFNNDLTREVPPCFIAGAEFDPLLDDSRLLYQTLAAHQQPCEFKLYPGTLHAFLHYSRMMKTADEALRDGAQFFTAQL
500

Next protein: unnamed (protein) MKPENKLPVLDLISAEMKTVVNTLQPDLPPWPATGTIAEQRQYYTLERRFWNAGAPEMATRAYMVPTKYGQVETRLFCPQPDSPATLFYLHGGGFILGNLDTHDRIMRLLASYSQCTVIGIDYTLSPEARFPQAIEEIVAACCYFHQQAEDYQINMSRIGFAGASAGAMLALASALWLRDKQIDCGKVAGVLLWYGLYGLRDSVTRRLLGGVWDGLTQQDLQMYEEAYLSNDADRESPYYCLFNNDLTREVPPCFIAGAEFDPLLDDSRLLYQTLAAHQQPCEFKLYPGTLHAFLHYSRMMKTADEALRDGAQFFTAQL
1000

Next protein: unnamed (protein) MKPENKLPVLDLISAEMKTVVNTLQPDLPPWPATGTIAEQRQYYTLERRFWNAGAPEMATRAYMVPTKYGQVETRLFCPQPDSPATLFYLHGGGFILGNLDTHDRIMRLLASYSQCTVIGIDYTLSPQARFPQAIEEIVAACCYFHQQAEDYQINMSRIGFAGDSAGAMLALASALWLRDKQIDCGKVAGVLLWYGLYGLRDSVTRRLLGGVWDGLTQQDLQMYEEAYLSNDADRESPYYCLFNNDLTREVPPCFIAGAEFDPLLDDSRLLYQTLAAHQQPCEFKLYPGTLHAFLHYSRMMKTADEALRDGAQFFTAQL
350
